system: LU-139 (Small Cell Lung Carcinoma); experiment: Bliss excess, mean over the matrix (fraction); higher = more synergy;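 further: after 72 h of two-drug dosing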
Note to self: class labels come from recorded Bliss excess, ranges listed here: bucket 1: < -0.02; bucket 2: ≥ -0.02 and < 0.01; bucket 3: ≥ 0.01

# input Which category does the recorded Bliss excess put Cc1c2c(nn1C)CSCc1cc(n(C)n1)CSc1cc(c3ccccc3c1)OCCCc1c(C(=O)O)n(C)c3c-2c(Cl)ccc13 [AZD5991] + C[C@@H]1COCCN1C2=NC(=NC(=C2)C3(CC3)[S@](=N)(=O)C)C4=C5C=CNC5=NC=C4 [AZD6738] (first compound max 1 µM, 7x7, partner max 10 µM) in?
# output bucket 3

# input Which category does the recorded Bliss excess put CC(=O)c1c(C)c2cnc(Nc3ccc(N4CCNCC4)cn3)nc2n(C2CCCC2)c1=O [Palbociclib] + Cn1cnc2c(F)c(Nc3ccc(Br)cc3Cl)c(C(=O)NOCCO)cc21 [Selumetinib] (first compound max 10 µM, 7x7, partner max 10 µM) in?
# output bucket 3

# input Which category does the recorded Bliss excess put CC1(C)CCC(CN2CCN(c3ccc(C(=O)NS(=O)(=O)c4ccc(NCC5CCOCC5)c([N+](=O)[O-])c4)c(Oc4cnc5[nH]ccc5c4)c3)CC2)=C(c2ccc(Cl)cc2)C1 [Venetoclax] + CN(C)CCCOc1ccc(-c2ccc3ncc4c(c3c2)n(C2CCOCC2)c(=O)n4C)cn1 [AZD0156] (first compound max 1 µM, 7x7, partner max 1 µM) in?
# output bucket 2

# input Which category does the recorded Bliss excess put C[C@@H](Oc1cc(-c2cnn(C3CCNCC3)c2)cnc1N)c1c(Cl)ccc(F)c1Cl [Crizotinib] + CC1=C(C(=CC=C1)Cl)NC(=O)C2=CN=C(S2)NC3=CC(=NC(=N3)C)N4CCN(CC4)CCO [Dasatinib] (first compound max 10 µM, 7x7, partner max 2 µM) in?
# output bucket 1

# input Which category does the recorded Bliss excess put CC1(C)CCC(CN2CCN(c3ccc(C(=O)NS(=O)(=O)c4ccc(NCC5CCOCC5)c([N+](=O)[O-])c4)c(Oc4cnc5[nH]ccc5c4)c3)CC2)=C(c2ccc(Cl)cc2)C1 [Venetoclax] + CS(=O)(=O)CCNCc1ccc(-c2ccc3ncnc(Nc4ccc(OCc5cccc(F)c5)c(Cl)c4)c3c2)o1 [Lapatinib] (first compound max 1 µM, 7x7, partner max 10 µM) in?
# output bucket 2

# input Which category does the recorded Bliss excess put CS(=O)(=O)CCNCc1ccc(-c2ccc3ncnc(Nc4ccc(OCc5cccc(F)c5)c(Cl)c4)c3c2)o1 [Lapatinib] + NC1(c2ccc(-c3nc4ccn5c(=O)[nH]nc5c4cc3-c3ccccc3)cc2)CCC1 [MK-2206] (first compound max 10 µM, 7x7, partner max 10 µM) in?
# output bucket 3

# input Which category does the recorded Bliss excess put CN(C)CCCOc1ccc(-c2ccc3ncc4c(c3c2)n(C2CCOCC2)c(=O)n4C)cn1 [AZD0156] + O=C(c1cc(Cc2n[nH]c(=O)c3ccccc23)ccc1F)N1CCN(C(=O)C2CC2)CC1 [Olaparib] (first compound max 3 µM, partner max 3 µM) in?
# output bucket 3

# input Which category does the recorded Bliss excess put C[C@@H](c1ccc2nccn2c1)n1nnc2ncc(-c3cnn(C)c3)nc21 [Savolitinib] + Cc1c2c(nn1C)CSCc1cc(n(C)n1)CSc1cc(c3ccccc3c1)OCCCc1c(C(=O)O)n(C)c3c-2c(Cl)ccc13 [AZD5991] (first compound max 1 µM, 7x7, partner max 1 µM) in?
# output bucket 1

# input Which category does the recorded Bliss excess put Cc1nc(Nc2ncc(C(=O)Nc3c(C)cccc3Cl)s2)cc(N2CCN(CCO)CC2)n1 [Dasatinib] + CC(=O)Nc1cccc(-n2c(=O)n(C3CC3)c(=O)c3c(Nc4ccc(I)cc4F)n(C)c(=O)c(C)c32)c1 [Trametinib] (first compound max 2 µM, 7x7, partner max 1 µM) in?
# output bucket 1

# input Which category does the recorded Bliss excess put C[C@@H]1COCCN1c1cc(C2([S@](C)(=N)=O)CC2)nc(-c2ccnc3[nH]ccc23)n1 [AZD6738] + O=C(c1cc(Cc2n[nH]c(=O)c3ccccc23)ccc1F)N1CCN(C(=O)C2CC2)CC1 [Olaparib] (first compound max 10 µM, 7x7, partner max 10 µM) in?
# output bucket 3

# input Which category does the recorded Bliss excess put C=CCn1c(=O)c2cnc(Nc3ccc(N4CCN(C)CC4)cc3)nc2n1-c1cccc(C(C)(C)O)n1 [AZD1775] + C[C@@H]1COCCN1C2=NC(=NC(=C2)C3(CC3)[S@](=N)(=O)C)C4=C5C=CNC5=NC=C4 [AZD6738] (first compound max 1 µM, partner max 10 µM) in?
# output bucket 2

# input Which category does the recorded Bliss excess put N#Cc1cnc(Nc2cc(NC[C@H]3CNCCO3)c(C(F)(F)F)cn2)cn1 [SRA737] + CCc1c2c(nc3ccc(O)cc13)-c1cc3c(c(=O)n1C2)COC(=O)[C@]3(O)CC [SN-38] (first compound max 10 µM, 7x7, partner max 0.3 µM) in?
# output bucket 1

# input Which category does the recorded Bliss excess put O=C(c1cc(Cc2n[nH]c(=O)c3ccccc23)ccc1F)N1CCN(C(=O)C2CC2)CC1 [Olaparib] + Cc1c2c(nn1C)CSCc1cc(n(C)n1)CSc1cc(c3ccccc3c1)OCCCc1c(C(=O)O)n(C)c3c-2c(Cl)ccc13 [AZD5991] (first compound max 10 µM, 7x7, partner max 1 µM) in?
# output bucket 1
